Origin of values: paper PMC3914206

# target.under.test: panel of 442 kinases (Homo sapiens, UniProt Q13043)
# Construct: purchased KINOMEscan
# Sequence (Q13043 whole entry): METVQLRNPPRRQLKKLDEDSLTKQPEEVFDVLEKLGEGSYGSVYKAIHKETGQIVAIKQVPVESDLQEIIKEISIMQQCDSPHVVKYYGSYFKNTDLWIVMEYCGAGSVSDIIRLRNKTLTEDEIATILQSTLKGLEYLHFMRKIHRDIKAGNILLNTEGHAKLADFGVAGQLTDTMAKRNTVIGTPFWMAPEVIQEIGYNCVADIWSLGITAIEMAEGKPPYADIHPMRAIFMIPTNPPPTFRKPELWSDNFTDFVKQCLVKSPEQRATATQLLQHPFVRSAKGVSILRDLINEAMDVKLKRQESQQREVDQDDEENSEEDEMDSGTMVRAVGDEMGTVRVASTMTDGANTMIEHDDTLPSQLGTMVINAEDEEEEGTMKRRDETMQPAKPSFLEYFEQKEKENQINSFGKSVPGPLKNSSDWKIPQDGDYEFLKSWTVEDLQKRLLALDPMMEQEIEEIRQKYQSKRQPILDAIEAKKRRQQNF
# Format: binding
# protocol.conditions: Compound Concentration 10 µM
result.type: KINOMEscan: MST1

>>> numeric_value("CCOc1cc(C(=O)N2CCC(N3CCN(C)CC3)CC2)ccc1Nc1ncc2c(n1)N(C1CCCC1)c1ccccc1C(=O)N2C")
100
>>> numeric_value("COc1cc(C(=O)N2CCC(N3CCN(C)CC3)CC2)ccc1Nc1ncc2c(n1)N1CCc3cccc(c31)C(=O)N2C")
95
>>> numeric_value("COc1cc(C(=O)N2CCC(N3CCN(C)CC3)CC2)ccc1Nc1ncc2c(n1)N(C)c1ccccc1C(=O)N2C")
100
>>> numeric_value("COc1cc(C(=O)N2CCC(N3CCN(C)CC3)CC2)ccc1Nc1ncc2c(n1)N(C1CCCC1)c1ccccc1C(=O)N2C")
100

====

Below, each of the compounds is paired with its reported KINOMEscan: MET(Y1235D) value.
# target.under.test: panel of 442 kinases (Homo sapiens, UniProt P08581, Y1235D)
# Construct: purchased KINOMEscan
# Sequence (P08581 25-1390 Y1235D): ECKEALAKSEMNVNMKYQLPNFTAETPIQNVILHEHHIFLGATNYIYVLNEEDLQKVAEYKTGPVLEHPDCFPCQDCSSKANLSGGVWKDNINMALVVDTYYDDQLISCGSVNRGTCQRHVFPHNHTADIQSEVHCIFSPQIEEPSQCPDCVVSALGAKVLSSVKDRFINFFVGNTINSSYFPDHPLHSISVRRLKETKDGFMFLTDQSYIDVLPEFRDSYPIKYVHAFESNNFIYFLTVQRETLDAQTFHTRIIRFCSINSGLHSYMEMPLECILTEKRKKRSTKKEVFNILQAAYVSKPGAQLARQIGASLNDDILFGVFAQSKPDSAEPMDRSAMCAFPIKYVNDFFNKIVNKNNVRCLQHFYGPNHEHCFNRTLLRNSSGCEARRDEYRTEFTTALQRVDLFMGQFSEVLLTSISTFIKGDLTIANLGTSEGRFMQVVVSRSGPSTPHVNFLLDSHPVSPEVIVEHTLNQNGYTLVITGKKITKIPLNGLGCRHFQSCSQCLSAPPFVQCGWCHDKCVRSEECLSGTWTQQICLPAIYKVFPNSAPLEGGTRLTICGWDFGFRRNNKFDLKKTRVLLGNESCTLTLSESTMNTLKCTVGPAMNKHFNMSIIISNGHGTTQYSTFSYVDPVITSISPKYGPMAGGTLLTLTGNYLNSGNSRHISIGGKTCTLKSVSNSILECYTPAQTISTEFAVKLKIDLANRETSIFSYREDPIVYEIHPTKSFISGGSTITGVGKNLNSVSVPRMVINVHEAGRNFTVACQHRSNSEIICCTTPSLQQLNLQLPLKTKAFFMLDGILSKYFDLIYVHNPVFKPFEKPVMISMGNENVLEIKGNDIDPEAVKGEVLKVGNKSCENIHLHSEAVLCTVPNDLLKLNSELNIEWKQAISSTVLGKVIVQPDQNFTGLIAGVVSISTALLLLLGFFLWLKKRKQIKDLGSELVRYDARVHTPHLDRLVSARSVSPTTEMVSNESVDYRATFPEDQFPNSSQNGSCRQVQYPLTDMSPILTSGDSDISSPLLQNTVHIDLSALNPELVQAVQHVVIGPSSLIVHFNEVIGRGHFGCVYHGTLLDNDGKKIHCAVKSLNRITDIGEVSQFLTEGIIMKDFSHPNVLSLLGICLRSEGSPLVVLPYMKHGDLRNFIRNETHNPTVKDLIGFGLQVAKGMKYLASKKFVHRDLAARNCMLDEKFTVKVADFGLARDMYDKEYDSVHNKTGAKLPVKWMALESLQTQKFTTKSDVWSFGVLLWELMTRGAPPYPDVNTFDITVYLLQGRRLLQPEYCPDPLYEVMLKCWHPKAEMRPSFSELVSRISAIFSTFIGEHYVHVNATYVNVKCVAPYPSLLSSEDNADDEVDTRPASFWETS
# Format: binding
# protocol.conditions: Compound Concentration 10 µM
result.type: KINOMEscan: MET(Y1235D)

>>> numeric_value("CCOc1cc(C(=O)N2CCC(N3CCN(C)CC3)CC2)ccc1Nc1ncc2c(n1)N(C1CCCC1)c1ccccc1C(=O)N2C")
100
>>> numeric_value("COc1cc(C(=O)N2CCC(N3CCN(C)CC3)CC2)ccc1Nc1ncc2c(n1)N1CCc3cccc(c31)C(=O)N2C")
74
>>> numeric_value("COc1cc(C(=O)N2CCC(N3CCN(C)CC3)CC2)ccc1Nc1ncc2c(n1)N(C)c1ccccc1C(=O)N2C")
100
>>> numeric_value("COc1cc(C(=O)N2CCC(N3CCN(C)CC3)CC2)ccc1Nc1ncc2c(n1)N(C1CCCC1)c1ccccc1C(=O)N2C")
100

====

# target.under.test: panel of 442 kinases (Homo sapiens)
# Construct: purchased KINOMEscan
# Format: binding
# protocol.conditions: Compound Concentration 10 µM
# From the text: We assessed the selectivity of members of this scaffold using the KINOMEscan methodology across a near comprehensive panel of 442 kinases [[18,27]].
result.type: KINOMEscan: CASK

>>> numeric_value("COc1cc(C(=O)N2CCC(N3CCN(C)CC3)CC2)ccc1Nc1ncc2c(n1)N(C1CCCC1)c1ccccc1C(=O)N2C")
100
>>> numeric_value("CCOc1cc(C(=O)N2CCC(N3CCN(C)CC3)CC2)ccc1Nc1ncc2c(n1)N(C1CCCC1)c1ccccc1C(=O)N2C")
98
>>> numeric_value("COc1cc(C(=O)N2CCC(N3CCN(C)CC3)CC2)ccc1Nc1ncc2c(n1)N(C)c1ccccc1C(=O)N2C")
85
>>> numeric_value("COc1cc(C(=O)N2CCC(N3CCN(C)CC3)CC2)ccc1Nc1ncc2c(n1)N1CCc3cccc(c31)C(=O)N2C")
100

====

# target.under.test: panel of 442 kinases (Homo sapiens)
# Construct: purchased KINOMEscan
# Sequence (P29320 21-983): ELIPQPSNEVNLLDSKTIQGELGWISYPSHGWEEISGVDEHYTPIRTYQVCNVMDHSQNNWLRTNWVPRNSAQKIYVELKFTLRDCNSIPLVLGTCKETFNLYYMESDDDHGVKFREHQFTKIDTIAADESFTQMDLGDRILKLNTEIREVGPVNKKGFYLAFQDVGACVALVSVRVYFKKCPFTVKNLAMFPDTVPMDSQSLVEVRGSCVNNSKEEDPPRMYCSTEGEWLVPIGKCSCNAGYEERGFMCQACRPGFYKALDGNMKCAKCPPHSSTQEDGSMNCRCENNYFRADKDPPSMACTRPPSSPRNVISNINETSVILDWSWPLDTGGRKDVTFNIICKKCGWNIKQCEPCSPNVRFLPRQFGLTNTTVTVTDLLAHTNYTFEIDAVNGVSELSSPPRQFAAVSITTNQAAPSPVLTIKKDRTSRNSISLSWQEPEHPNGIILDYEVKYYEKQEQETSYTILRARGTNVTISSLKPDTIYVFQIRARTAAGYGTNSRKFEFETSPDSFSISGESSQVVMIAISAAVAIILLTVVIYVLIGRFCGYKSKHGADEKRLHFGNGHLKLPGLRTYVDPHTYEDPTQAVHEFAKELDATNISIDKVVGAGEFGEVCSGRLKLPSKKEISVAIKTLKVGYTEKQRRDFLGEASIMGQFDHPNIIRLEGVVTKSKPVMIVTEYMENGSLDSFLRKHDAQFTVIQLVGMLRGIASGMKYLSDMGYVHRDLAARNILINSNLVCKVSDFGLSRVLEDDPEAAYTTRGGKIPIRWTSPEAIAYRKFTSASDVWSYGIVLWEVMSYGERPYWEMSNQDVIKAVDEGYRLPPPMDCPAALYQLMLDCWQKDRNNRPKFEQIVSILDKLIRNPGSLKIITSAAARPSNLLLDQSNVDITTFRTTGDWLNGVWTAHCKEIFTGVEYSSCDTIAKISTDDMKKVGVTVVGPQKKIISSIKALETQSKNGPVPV
# Assay type: binding
# protocol.conditions: Compound Concentration 10 µM
Measured KINOMEscan: EPHA3 by item
result.type: KINOMEscan: EPHA3

>>> numeric_value("COc1cc(C(=O)N2CCC(N3CCN(C)CC3)CC2)ccc1Nc1ncc2c(n1)N(C)c1ccccc1C(=O)N2C")
100
>>> numeric_value("COc1cc(C(=O)N2CCC(N3CCN(C)CC3)CC2)ccc1Nc1ncc2c(n1)N1CCc3cccc(c31)C(=O)N2C")
91
>>> numeric_value("COc1cc(C(=O)N2CCC(N3CCN(C)CC3)CC2)ccc1Nc1ncc2c(n1)N(C1CCCC1)c1ccccc1C(=O)N2C")
100
>>> numeric_value("CCOc1cc(C(=O)N2CCC(N3CCN(C)CC3)CC2)ccc1Nc1ncc2c(n1)N(C1CCCC1)c1ccccc1C(=O)N2C")
95

====

Reported % Ctrl, SRC is given for each of the following molecules.
# target.under.test: panel of 442 kinases (Homo sapiens)
# Construct: purchased KINOMEscan
# Format: binding
# protocol.conditions: kinase SRC; compound concentration 10 µM
result.type: % Ctrl, SRC (% Ctrl)

>>> numeric_value("COc1cc(C(=O)N2CCC(N3CCN(C)CC3)CC2)ccc1Nc1ncc2c(n1)N1CCc3cccc(c31)C(=O)N2C")
95
>>> numeric_value("CCOc1cc(C(=O)N2CCC(N3CCN(C)CC3)CC2)ccc1Nc1ncc2c(n1)N(C1CCCC1)c1ccccc1C(=O)N2C")
100
>>> numeric_value("COc1cc(C(=O)N2CCC(N3CCN(C)CC3)CC2)ccc1Nc1ncc2c(n1)N(C)c1ccccc1C(=O)N2C")
100
>>> numeric_value("COc1cc(C(=O)N2CCC(N3CCN(C)CC3)CC2)ccc1Nc1ncc2c(n1)N(C1CCCC1)c1ccccc1C(=O)N2C")
90

====

# target.under.test: panel of 442 kinases (Homo sapiens, UniProt Q96RR4)
# Construct: purchased KINOMEscan
# Sequence (Q96RR4 whole entry): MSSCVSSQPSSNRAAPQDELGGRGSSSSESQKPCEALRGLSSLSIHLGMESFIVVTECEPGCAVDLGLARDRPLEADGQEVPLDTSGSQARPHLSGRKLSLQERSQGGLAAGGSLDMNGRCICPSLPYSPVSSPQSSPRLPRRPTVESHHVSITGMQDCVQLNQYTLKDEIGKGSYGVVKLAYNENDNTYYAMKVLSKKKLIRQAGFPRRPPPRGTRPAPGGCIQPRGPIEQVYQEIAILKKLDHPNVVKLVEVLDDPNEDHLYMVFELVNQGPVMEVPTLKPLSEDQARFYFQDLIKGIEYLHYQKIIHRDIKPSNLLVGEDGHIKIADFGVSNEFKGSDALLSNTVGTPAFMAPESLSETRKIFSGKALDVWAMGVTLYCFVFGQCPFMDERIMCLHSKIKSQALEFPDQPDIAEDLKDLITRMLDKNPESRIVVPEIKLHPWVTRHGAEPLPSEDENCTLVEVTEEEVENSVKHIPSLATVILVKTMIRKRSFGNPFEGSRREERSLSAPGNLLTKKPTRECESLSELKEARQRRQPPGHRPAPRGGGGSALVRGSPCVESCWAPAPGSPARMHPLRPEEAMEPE
# Assay type: binding
# protocol.conditions: Compound Concentration 10 µM
result.type: KINOMEscan: CAMKK2

>>> numeric_value("COc1cc(C(=O)N2CCC(N3CCN(C)CC3)CC2)ccc1Nc1ncc2c(n1)N(C1CCCC1)c1ccccc1C(=O)N2C")
78
>>> numeric_value("COc1cc(C(=O)N2CCC(N3CCN(C)CC3)CC2)ccc1Nc1ncc2c(n1)N1CCc3cccc(c31)C(=O)N2C")
52
>>> numeric_value("COc1cc(C(=O)N2CCC(N3CCN(C)CC3)CC2)ccc1Nc1ncc2c(n1)N(C)c1ccccc1C(=O)N2C")
31
>>> numeric_value("CCOc1cc(C(=O)N2CCC(N3CCN(C)CC3)CC2)ccc1Nc1ncc2c(n1)N(C1CCCC1)c1ccccc1C(=O)N2C")
100

====

# target.under.test: panel of 442 kinases (Homo sapiens)
# Construct: purchased KINOMEscan
# Type: binding
# protocol.conditions: Compound Concentration 10 µM
result.type: KINOMEscan: CDK2

>>> numeric_value("CCOc1cc(C(=O)N2CCC(N3CCN(C)CC3)CC2)ccc1Nc1ncc2c(n1)N(C1CCCC1)c1ccccc1C(=O)N2C")
100
>>> numeric_value("COc1cc(C(=O)N2CCC(N3CCN(C)CC3)CC2)ccc1Nc1ncc2c(n1)N(C1CCCC1)c1ccccc1C(=O)N2C")
96
>>> numeric_value("COc1cc(C(=O)N2CCC(N3CCN(C)CC3)CC2)ccc1Nc1ncc2c(n1)N1CCc3cccc(c31)C(=O)N2C")
95
>>> numeric_value("COc1cc(C(=O)N2CCC(N3CCN(C)CC3)CC2)ccc1Nc1ncc2c(n1)N(C)c1ccccc1C(=O)N2C")
100

====

# target.under.test: panel of 442 kinases (Homo sapiens, UniProt Q8IYT8)
# Construct: purchased KINOMEscan
# Sequence (Q8IYT8 1-1036): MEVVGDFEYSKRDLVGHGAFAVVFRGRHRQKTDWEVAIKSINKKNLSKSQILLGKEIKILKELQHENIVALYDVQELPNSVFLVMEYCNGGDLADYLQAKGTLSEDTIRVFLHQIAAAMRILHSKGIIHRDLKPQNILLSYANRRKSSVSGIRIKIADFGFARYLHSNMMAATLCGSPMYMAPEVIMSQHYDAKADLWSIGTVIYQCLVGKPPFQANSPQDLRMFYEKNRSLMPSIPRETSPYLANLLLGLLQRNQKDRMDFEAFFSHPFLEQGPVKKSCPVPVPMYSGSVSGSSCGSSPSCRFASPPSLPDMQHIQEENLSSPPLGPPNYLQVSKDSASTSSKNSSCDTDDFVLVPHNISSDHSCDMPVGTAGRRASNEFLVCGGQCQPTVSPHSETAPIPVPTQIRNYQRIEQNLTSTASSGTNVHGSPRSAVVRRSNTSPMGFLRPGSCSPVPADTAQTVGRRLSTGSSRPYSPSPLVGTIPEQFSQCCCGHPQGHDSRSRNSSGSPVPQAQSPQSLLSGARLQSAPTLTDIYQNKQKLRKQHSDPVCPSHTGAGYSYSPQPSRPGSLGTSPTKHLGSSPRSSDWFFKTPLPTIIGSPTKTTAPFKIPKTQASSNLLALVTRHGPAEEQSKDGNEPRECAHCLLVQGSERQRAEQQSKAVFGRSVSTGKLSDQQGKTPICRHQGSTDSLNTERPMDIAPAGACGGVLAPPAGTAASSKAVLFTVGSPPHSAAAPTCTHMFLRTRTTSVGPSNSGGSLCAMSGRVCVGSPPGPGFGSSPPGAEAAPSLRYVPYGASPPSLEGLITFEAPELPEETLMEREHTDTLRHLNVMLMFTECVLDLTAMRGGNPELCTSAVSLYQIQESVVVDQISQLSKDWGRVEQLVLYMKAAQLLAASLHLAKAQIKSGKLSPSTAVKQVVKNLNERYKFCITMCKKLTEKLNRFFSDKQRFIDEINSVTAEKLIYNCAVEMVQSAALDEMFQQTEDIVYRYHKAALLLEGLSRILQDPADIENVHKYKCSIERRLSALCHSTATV
# Format: binding
# protocol.conditions: kinase ULK2; compound concentration 10 µM
result.type: % Ctrl, ULK2 (% Ctrl)

>>> numeric_value("CCOc1cc(C(=O)N2CCC(N3CCN(C)CC3)CC2)ccc1Nc1ncc2c(n1)N(C1CCCC1)c1ccccc1C(=O)N2C")
98
>>> numeric_value("COc1cc(C(=O)N2CCC(N3CCN(C)CC3)CC2)ccc1Nc1ncc2c(n1)N1CCc3cccc(c31)C(=O)N2C")
96
>>> numeric_value("COc1cc(C(=O)N2CCC(N3CCN(C)CC3)CC2)ccc1Nc1ncc2c(n1)N(C)c1ccccc1C(=O)N2C")
67
>>> numeric_value("COc1cc(C(=O)N2CCC(N3CCN(C)CC3)CC2)ccc1Nc1ncc2c(n1)N(C1CCCC1)c1ccccc1C(=O)N2C")
75
